system: WI-38 VA13; test: Cytotoxicity against human VA-13 cells by WST-8 assay; type: functional, cell-based
pIC50: −log10 of the molar value.
Below, each entry is listed alongside its reported pIC50.
Measure Name: pIC50

C[C@H]1[C@@H]2[C@H]3CC[C@@H]4[C@@]5(C)CC[C@H](O)C(C)(C)[C@@H]5CC[C@@]4(C)[C@]3(C)CC[C@@]23C=C[C@]1(C)OC3 ... 3.95
CO[C@H]1O[C@@]2(C)CC[C@@]13CC[C@]1(C)[C@H](CC[C@@H]4[C@@]5(C)CC[C@H](O)C(C)(C)[C@@H]5CC[C@]41C)[C@H]3[C@@H]2C ... 4.93
C[C@H]1[C@H](C)CC[C@]2(O)CC[C@]3(C)C(=CC[C@@H]4[C@@]5(C)CC[C@H](O)C(C)(C)[C@@H]5CC[C@]43C)[C@H]12 ... 3.97
C[C@H]1[C@H](C)CC[C@]2(C=O)CC[C@]3(C)C(=CC[C@@H]4[C@@]5(C)CC[C@H](O)C(C)(C)[C@@H]5CC[C@]43C)[C@H]12 ... 4.07
